Several reports have described pIC50 for Dipeptidyl peptidase 2 (Homo sapiens, UniProt Q9UHL4); a selection of those results is presented here.
pIC50: −log10 of the molar value.
measured.quantity: pIC50

CS(=O)(=O)Nc1cccc(NC(=O)CN2CCN(C(=O)C[C@@H](N)Cc3ccccc3)C(Cc3ccccc3)C2)c1 (some centres undefined) | 4.72
N[C@H](Cc1cc(F)ccc1F)[C@H]1CC[C@H](N2CCn3c(nnc3C(F)(F)F)C2)CC1 | 4.74

A = N[C@H](C(=O)N1CCCC1)[C@H]1CC[C@H](NS(=O)(=O)c2ccc(NS(=O)(=O)CC(F)(F)F)cc2)CC1
B = N#Cc1ccc(NCC[C@H](N)C(=O)N2CCCCC2)nc1
C = CCCC[C@@H](NC(=O)[C@@H](N)CC)B(O)O
D = N[C@@H](CCNCc1ccccc1OCc1ccccc1)C(=O)N1CCCCC1
E = Cc1ccccc1C[C@@H](N)CC(=O)N1CCSC1
INPUT: Would you mind ranking these compounds by ascending pIC50? Give the labels in the order requested.
OUTPUT: E, A, C, B, D
(E: 4.04, A: 4.82, C: 7.31, B: 8.34, D: 9.41)
